I'd be grateful if you could share measured STROKE AVG. for these entries.
Test system: neurons in brain slices
Assay type: cell-based
Conditions: 25 uM; stroke brain slice; 24 hrs exposure; average neuron count
Write the number on its own, no unit after it.

Exercise: Requested read-out STROKE AVG., target or system neurons in brain slices, entry CC=C(C)C(=O)OC1CCC2(C)C3CCC4[C@]5(O)CC(O)[C@@]6(O)C(CN7CC(C)CCC7[C@@]6(C)O)[C@]5(O)C[C@@]42O[C@]13O (stereo partly shown)
Key: 126

Exercise: Requested read-out STROKE AVG., target or system neurons in brain slices, entry O=C1O[C@H]([C@@H](O)CO)C([O-])=C1O.[Na+] [Sodium Ascorbate, Sodium ascorbate, reference compound]
Key: 0.5

Exercise: Requested read-out STROKE AVG., target or system neurons in brain slices, entry COC1C(O)[C@H](O[C@H]2CC[C@]3(C)C4CC[C@]5(C)C(C6=CC(=O)OC6)CC[C@]5(O)C4CC[C@@H]3C2)OC(C)[C@@H]1O (stereo partly shown)
Key: 43.4

Exercise: Requested read-out STROKE AVG., target or system neurons in brain slices, entry NC(C(=O)O)c1nnn[nH]1 (racemic) [(RS)-(Tetrazol-5-yl)glycine]
Key: 53.2

====

Test system: neurons in brain slices
Type: cell-based
Settings: 50 uM; non-stroke brain slice; 24 hrs exposure; average neuron count
From the text: A negative and positive control experiments were also run for comparison. In the positive control, a known neuroprotective gene and reporter gene (i.e., a green fluorescent protein) were shot into the stroke and non-stroke brain slices. In the negative control, only the reporter gene (i.e., a green fluorescent protein) was shot into the stroke and non-stroke brain slices. […] A negative and positive control experiments were also run for comparison as described above for Example 1. […]
value.kind: NON-STROKE AVERAGE
Write the number on its own, no unit after it.

Exercise: Any idea what its NON-STROKE AVERAGE is? The compound is NC(C(=O)O)c1nnn[nH]1 (racemic) [(RS)-(Tetrazol-5-yl)glycine]
Key: 68.8

Exercise: Any idea what its NON-STROKE AVERAGE is? The compound is CC=C(C)C(=O)OC1CCC2(C)C3CCC4[C@]5(O)CC(O)[C@@]6(O)C(CN7CC(C)CCC7[C@@]6(C)O)[C@]5(O)C[C@@]42O[C@]13O (stereo partly shown)
Key: 118

Exercise: Any idea what its NON-STROKE AVERAGE is? The compound is O=C1O[C@H]([C@@H](O)CO)C([O-])=C1O.[Na+] [Sodium Ascorbate, Sodium ascorbate, reference compound]
Key: 10

Exercise: Any idea what its NON-STROKE AVERAGE is? The compound is COC1C(O)[C@H](O[C@H]2CC[C@]3(C)C4CC[C@]5(C)C(C6=CC(=O)OC6)CC[C@]5(O)C4CC[C@@H]3C2)OC(C)[C@@H]1O (stereo partly shown)
Key: 32.2
